// values below are reported pKd
target: GIPC2, Q8TF65; test: holdup assay; set-up: key: below the threshold = too weak to quantify, mostly under pKd 3.1 to 4; settings: plain residues with an end cap or a label only (N-terminal biotin on a linker: ttds)
Sequence (Q8TF65 112-203): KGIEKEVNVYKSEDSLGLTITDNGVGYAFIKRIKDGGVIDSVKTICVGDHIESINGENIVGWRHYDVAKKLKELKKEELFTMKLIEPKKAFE
Just the number, please, no unit after it.

Worked examples follow.
Binder	Quantity kind	Observed value
SGSRPSATVV [HPV73-E6, Q82005]	pKd	3.62
RHTTSTETAV [HPV30-E6, P36809]	pKd	3.96
KKYVDAETSL [SLC4A7, Q9Y6M7]	pKd	3.68
EMDRRPATVV [PLCB4, Q15147]	pKd	3.48
SSLQSLETSV [ATP2B4, P23634]	pKd	4.16

Then there is this binder:
Given item PVRVCEETSL [OTULIN, Q96BN8] , the value recorded as its pKd is 4.02
